# Target Under Test: Adenosylhomocysteinase (Homo sapiens, UniProt P23526)
# Sequence (P23526 whole entry): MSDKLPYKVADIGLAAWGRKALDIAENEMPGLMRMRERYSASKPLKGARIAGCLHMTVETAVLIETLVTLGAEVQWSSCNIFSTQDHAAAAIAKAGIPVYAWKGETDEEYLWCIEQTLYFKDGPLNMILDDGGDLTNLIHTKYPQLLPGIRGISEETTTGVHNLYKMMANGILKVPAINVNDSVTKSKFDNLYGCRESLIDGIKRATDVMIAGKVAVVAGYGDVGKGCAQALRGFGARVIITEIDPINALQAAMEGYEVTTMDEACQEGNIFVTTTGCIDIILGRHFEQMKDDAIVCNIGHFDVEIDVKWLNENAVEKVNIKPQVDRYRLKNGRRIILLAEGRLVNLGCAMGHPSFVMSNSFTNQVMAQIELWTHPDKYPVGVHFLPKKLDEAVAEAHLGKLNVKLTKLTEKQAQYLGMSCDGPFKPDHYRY
# Method Notes: Inhibition of recombinant human placental AdoHcy hydrolase expressed in Escherichia coli BL21 using AdoHcy as substrate preincubated for 10 mins followed by substrate addition measured after 20 mins by DTNB coupled assay
pIC50: −log10 of the molar value.
Measured pIC50, listed per entry for reference.

Compound	Recorded Metric	Value Observed
Nc1ncnc2c1ccn2[C@@H]1C=C(CCO)[C@@H](O)[C@H]1O	pIC50	< 4.00
OCC1=C(F)[C@@H](n2ccc3c(O)ncnc32)[C@H](O)[C@@H]1O	pIC50	< 4.00
Nc1nccc2c1ncn2[C@@H]1C=C(CCO)[C@@H](O)[C@H]1O	pIC50	5.42
CNc1ncnc2c1ccn2[C@@H]1C=C(CO)[C@@H](O)[C@H]1O	pIC50	< 4.00
Nc1ncnc2c1ncn2[C@@H]1C(F)=C(CO)[C@@H](O)[C@H]1O	pIC50	6.62
CNc1ncnc2c1ccn2[C@@H]1C(F)=C(CO)[C@@H](O)[C@H]1O	pIC50	< 4.00
OCC1=C[C@@H](n2ccc3c(O)ncnc32)[C@H](O)[C@@H]1O	pIC50	< 4.00
Nc1ncnc2c1ncn2[C@@H]1C(F)=C(CCO)[C@@H](O)[C@H]1O	pIC50	6.04
Nc1ncnc2c1ncn2[C@@H]1C=C(CO)[C@@H](O)[C@H]1O	pIC50	6.33
Nc1ncnc2c1ccn2[C@@H]1C(F)=C(CO)[C@@H](O)[C@H]1O	pIC50	< 4.00

Proceeding to the next compound to report its pIC50.
## Input Please give the measured pIC50 for this compound: Nc1ncnc2c1ccn2C1C=C(CO)[C@@H](O)[C@H]1O (single isomer, unassigned)
## Output < 4.00

* * *

# Tested on: Picornaviridae
# Method Notes: Antiviral activity against picornavirus infected in CB1 cells assessed as inhibition of viral replication after 3 days by MTT assay
# Assay type: functional, organism-based
# Details: CB1, 72 h
Recorded Metric: pEC50
For clarity, pEC50 is expressed as the negative log10 of concentration in mol/L.

## Input Please give the measured pEC50 for this molecule: `Nc1ncnc2c1ccn2[C@@H]1C(F)=C(CO)[C@@H](O)[C@H]1O`
## Output 5.63
